Every entry's value here was drawn from paper PMC5700813.

- target under test: core BBSome (BBS1,4,5,8,9,18)
- Construct: His-tag; made in house; host or cells: Hi5 insect cells (baculovirus)
- assay comment: Fluorescence polarization binding of fluorescently labeled peptides to the core BBSome
- Parameters: species or system human
- condition: N-terminally fluorescein-labeled peptide 0.1–1 µM titrated with purified core BBSome, fitted to binding curve
- From the text: Our microarray data indicated multiple closely spaced binding epitopes in several cases. Where possible, we combined those epitopes into a single fluorescent peptide with up to 37 residues length to more fully reflect the binding site/motif. […] Cargo binding to the core BBSome with fluorescence polarization, measured by using fluorescently labeled peptides and the purified core BBSome. […]
Ends that are not written are not given here.
value kind: Kd

Ask | Read off the recorded Kd for TLLIAARTAARLTGQSDDE [Smo CT7]
Reply | 14.3 µM

====

- target under test: core BBSome (BBS1,4,5,8,9,18)
- Construct: His-tag; made in house; host or cells: Hi5 insect cells (baculovirus)
- assay comment: Fluorescence polarization binding of fluorescently labeled peptides to the core BBSome
- Parameters: species or system human
- condition: N-terminally fluorescein-labeled peptide 0.1–1 µM titrated with purified core BBSome, fitted to binding curve, read-out: KD (converted)
Ends that are not written are not given here.
value kind: log10 Kd (log10 of the value in µM)
Would you kindly interpret these values as log10 of Kd expressed in µM?

Ask | # return recorded log10 Kd for input NKTVRKELLGMCFGDRYYREPFVQRQR [GPR161 CT1]
Reply | 1.83

Ask | Tell us which log10 Kd value is on record for TLLIAARTWCRLTGQSDDE [Smo CT5]
Reply | 0.99

Ask | Using known records, supply log10 Kd for GFLSYRFKQGAARVLLRPSRRVRS [SSTR3 CT5]
Reply | 0.18

Ask | Read the entry GFLSYRFKQGFRRVLLRPSEEVES [SSTR3 CT9] and write its reported log10 Kd.
Reply | 0.67

Ask | Item TLLIWRRTAARLTGQSDDE [Smo CT6] : provide log10 Kd
Reply | 1.10

Ask | Indicate its recorded log10 Kd; the sequence in question is TLLIWRRTWCRLTGQSDDE [Smo CT4]
Reply | 0.04

Ask | Give the measured log10 Kd for LLIGLRLRRERLLLMQEAKGRG [NMU 3ICL1]
Reply | 1.26

Ask | Recall and state the measured log10 Kd for TLLIWRRTWCRLTGQ [Smo CT1] .
Reply | 0.26

Ask | Answer with reported log10 Kd of KRLGRKKKRRKRKKE [Smo CT8]
Reply | 0.83

Ask | Supply reported log10 Kd belonging to this sequence: RFKQGFRRVLLRPSR [SSTR3 CT1]
Reply | 1.34

Ask | Using known records, supply log10 Kd for VKVRSAGRRVWAPSCQRRRRSERRVTRM [SSTR3 3ICL]
Reply | 1.11

====

Consider the following sequences; for each one, report its Kd.
- target under test: core BBSome (BBS1,4,5,8,9,18)
- Construct: His-tag; made in house; host or cells: Hi5 insect cells (baculovirus)
- assay comment: Fluorescence polarization binding of fluorescently labeled peptides to the core BBSome
- Parameters: species or system human
- condition: N-terminally fluorescein-labeled peptide 0.1–1 µM titrated with purified core BBSome, fitted to binding curve, read-out: KD (converted)
Ends that are not written are not given here.
Write the value in µM as a bare number.

Ask | Please indicate Kd recorded for GFLSAAAAQGFRRVLLRPSRRVRS [SSTR3 CT7]
Reply | 1

Ask | Using known records, supply Kd for TLLIWRRTWCRLTGQSDDEPKRIKKSKMIAKAFSKRH [Smo CT3]
Reply | 1.4

Ask | Please report Kd for the following sequence: GFLSAAAAQGAARVLLRPSRRVRS [SSTR3 CT8]
Reply | 11

Ask | Please report the measured Kd for FIFRVARVKARKVHCG [GPR161 3ICL]
Reply | 6.3

Ask | Output Kd of RILQRMTSSVAPASQRSIRLRTKRVTRT [MCH 3ICL]
Reply | 68.8

Ask | Recall and state the measured Kd for GFLSYRFKQGFRRVLLRPSRRVRS [SSTR3 CT2] .
Reply | 0.11

Ask | Item GFLSYRAAQGFRRVLLRPSRRVRS [SSTR3 CT4] : provide Kd
Reply | 0.4

Ask | Retrieve Kd measured for GFLSAAFKQGAARVLLRPSRRVRS [SSTR3 CT6] and print it.
Reply | 4.5

Ask | Give the reported Kd for this sequence. GFLSAAFKQGFRRVLLRPSRRVRS [SSTR3 CT3]
Reply | 1.1
